In Vivo BRh 3 mg·kg 8 h (remaining FAAH activity, % of control): recorded values
- assayedTarget: FAAH (Mus musculus, UniProt O08914)
- Construct: A fragment of liver, left lung lobe and brain without cerebellum were removed; from tissue; host or cells: male NMRI mice; brain (without cerebellum) and liver homogenates
- Sequence (O08914 1-579): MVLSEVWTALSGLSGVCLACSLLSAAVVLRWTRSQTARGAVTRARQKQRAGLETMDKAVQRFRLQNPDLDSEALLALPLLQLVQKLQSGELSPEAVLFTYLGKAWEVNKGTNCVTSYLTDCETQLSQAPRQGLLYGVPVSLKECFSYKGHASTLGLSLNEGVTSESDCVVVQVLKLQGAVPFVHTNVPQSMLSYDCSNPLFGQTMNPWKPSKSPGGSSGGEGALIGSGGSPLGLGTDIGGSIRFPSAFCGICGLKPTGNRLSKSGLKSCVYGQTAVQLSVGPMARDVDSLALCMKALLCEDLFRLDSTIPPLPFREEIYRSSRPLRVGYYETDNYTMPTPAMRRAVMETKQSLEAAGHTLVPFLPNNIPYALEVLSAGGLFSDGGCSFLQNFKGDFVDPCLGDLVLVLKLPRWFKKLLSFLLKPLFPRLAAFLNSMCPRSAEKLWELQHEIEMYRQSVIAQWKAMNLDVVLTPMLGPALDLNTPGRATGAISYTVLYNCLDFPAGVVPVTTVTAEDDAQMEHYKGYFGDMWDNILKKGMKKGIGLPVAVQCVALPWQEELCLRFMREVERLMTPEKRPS
- assayComment: In vivo FAAH inhibition after oral dosing, remaining activity in brain homogenate (BRh, central nervous tissue)
- Set-up: species or system NMRI mice
- runConditions: brain homogenate, 3 mg/kg, 8 h after dosing; low value = strong inhibitor

input: For the molecule shown here, CN(C(=O)n1cnc(-c2ccc(-c3nn[nH]n3)cc2)c1)C1CCCCC1 [Compound no. 380] , give the reported In Vivo BRh 3 mg·kg 8 h (remaining FAAH activity, % of control).
output: 77.3 % of control

input: For the molecule shown here, CN(C(=O)n1nnc2ccccc21)C1CCN(Cc2ccccc2)CC1.Cl [Compound no. 492] , give the reported In Vivo BRh 3 mg·kg 8 h (remaining FAAH activity, % of control).
output: 0.9 % of control

input: For the molecule shown here, CN(C(=O)n1cnc(-c2ccc(NCc3ccccc3)c([N+](=O)[O-])c2)c1)C1CCCCC1 [Compound no. 425] , give the reported In Vivo BRh 3 mg·kg 8 h (remaining FAAH activity, % of control).
output: 111.4 % of control

input: For the molecule shown here, CC1(C)COCN1C(=O)n1cnc(-c2ccc(O)c(N)c2)c1.Cl [Compound no. 358] , give the reported In Vivo BRh 3 mg·kg 8 h (remaining FAAH activity, % of control).
output: 117.1 % of control

input: For the molecule shown here, CN(C(=O)n1cnc(-c2cccnc2)c1)C1CCCCC1 [Compound 335] , give the reported In Vivo BRh 3 mg·kg 8 h (remaining FAAH activity, % of control).
output: 3.1 % of control

input: For the molecule shown here, Cc1nc(-c2ccccc2)nn1C(=O)N(C)C1CCCCC1 [Compound 284] , give the reported In Vivo BRh 3 mg·kg 8 h (remaining FAAH activity, % of control).
output: 130.7 % of control

input: For the molecule shown here, CC1(C)COCN1C(=O)n1nnc2cccnc21 [Compound no. 368] , give the reported In Vivo BRh 3 mg·kg 8 h (remaining FAAH activity, % of control).
output: 4.9 % of control

input: For the molecule shown here, Br.CN(C(=O)n1cnc(-c2ccc(O)c([N+](=O)[O-])c2)c1)C1CCN(Cc2ccccc2)CC1 [Compound no. 457] , give the reported In Vivo BRh 3 mg·kg 8 h (remaining FAAH activity, % of control).
output: 28.1 % of control
